test-system: memapsin 2 (Cricetulus griseus)
Construct: endogenous in cells
Sequence (G3IAK4 22-501): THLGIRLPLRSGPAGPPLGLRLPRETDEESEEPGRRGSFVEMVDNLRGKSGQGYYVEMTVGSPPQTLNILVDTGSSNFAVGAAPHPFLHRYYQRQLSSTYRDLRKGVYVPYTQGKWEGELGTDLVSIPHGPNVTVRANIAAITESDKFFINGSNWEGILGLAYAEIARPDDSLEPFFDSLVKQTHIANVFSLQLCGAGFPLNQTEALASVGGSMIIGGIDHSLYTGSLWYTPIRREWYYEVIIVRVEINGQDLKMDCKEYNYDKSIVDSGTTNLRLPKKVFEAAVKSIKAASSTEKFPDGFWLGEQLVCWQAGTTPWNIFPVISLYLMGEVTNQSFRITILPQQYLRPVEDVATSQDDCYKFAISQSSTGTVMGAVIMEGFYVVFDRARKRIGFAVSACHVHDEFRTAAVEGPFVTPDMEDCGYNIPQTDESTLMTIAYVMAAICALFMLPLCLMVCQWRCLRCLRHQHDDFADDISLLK
method: Cellular Aβ IC50 determination (Aβ40 sandwich ELISA)
measurement-conditions: CHO cells over-expressing human APP695 with London and Swedish mutations, 24 h, read-out: M2 IC50
measured-property: IC50

>  <molecule>
Cc1csc([C@H]2CCCN2C(=O)c2cc(C(=O)N[C@@H](Cc3ccccc3)[C@H](O)[C@H]3CCCN3)cc(N3CCC(F)(F)CC3)c2)n1

>  <test-system>
memapsin 2 (Cricetulus griseus)

>  <measured>
500 to 1000 nM

$$$$
>  <molecule>
C[C@@H](NC(=O)c1cc(C(=O)N[C@@H](Cc2ccccc2)[C@H](O)[C@H]2CCCN2)cc(N(C)S(C)(=O)=O)c1)c1ccccc1

>  <test-system>
memapsin 2 (Cricetulus griseus)

>  <measured>
< 500 nM

$$$$
>  <molecule>
Cc1csc([C@H]2CCCN2C(=O)c2cccc(C(=O)N[C@@H](Cc3cc(F)cc(F)c3)[C@H](O)[C@H]3CCCN3)c2)n1

>  <test-system>
memapsin 2 (Cricetulus griseus)

>  <measured>
500 to 1000 nM

$$$$

memapsin 2 (Cricetulus griseus) / IC50 / Cc1csc(CN(C)C(=O)c2cccc(C(=O)N[C@@H](Cc3ccccc3)[C@H](O)[C@H]3CCCN3C(=O)OC(C)(C)C)c2)n1 : value?
> 1000 nM

# value lookup — system memapsin 2 (Cricetulus griseus), readout IC50, item Cc1coc([C@H]2CCCN2C(=O)c2cc(C(=O)N[C@@H](Cc3ccccc3)[C@H](O)[C@H]3CCCN3)cc(-c3ncco3)c2)n1
< 500 nM

Request body: readout IC50, system memapsin 2 (Cricetulus griseus), query CCn1cc(CNC[C@@H](O)[C@H](Cc2ccccc2)NC(=O)c2cc(C)cc(C(=O)N3CCC[C@@H]3c3nc(C)co3)c2)cn1 [2-5, reference compound] . Return the value.
< 500 nM

Request body: readout IC50, system memapsin 2 (Cricetulus griseus), query Cc1csc(CN(C(=O)c2cccc(C(=O)N[C@@H](Cc3ccccc3)[C@H](O)CNCc3cccc(C(F)(F)F)c3)c2)C2CC2)n1 [2-9, reference compound] . Return the value.
< 500 nM

IC50 of Cc1csc([C@H]2CCCN2C(=O)c2cc(C(=O)N[C@@H](Cc3ccccc3)[C@H](O)CNCc3cncc(C(C)C)c3)cc(-c3ccco3)c2)n1 [2-2, reference compound] on memapsin 2 (Cricetulus griseus)?
< 500 nM

Recorded IC50 for Cc1csc(CN(C)C(=O)c2cccc(C(=O)N[C@@H](Cc3ccccc3)[C@H](O)[C@H]3C[C@@H](O)CN3)c2)n1 with memapsin 2 (Cricetulus griseus), please?
> 1000 nM

---

method: Hepatic intrinsic clearance in liver microsomes
Type: in vitro ADME
measurement-conditions: human, pH 7.4, human liver microsomes, in vitro clearance, read-out: HLM CL
measured-property: CLint scaled at 200 μM

Consider the reported CLint scaled at 200 μM for these compounds:
>  <compound>
Cc1csc([C@H]2CCCN2C(=O)c2cc(C(=O)N[C@@H](Cc3ccccc3)[C@H](O)[C@H]3CCCN3)cc(C(F)F)c2)n1

>  <CLint scaled at 200 μM>
< 400 mL/min/kg

$$$$
>  <compound>
Cc1csc([C@H]2CCCN2C(=O)c2cccc(C(=O)N[C@@H](Cc3cc(F)cc(F)c3)[C@H](O)[C@H]3CCCN3)c2)n1

>  <CLint scaled at 200 μM>
< 400 mL/min/kg

$$$$
>  <compound>
Cc1csc([C@H]2CCCN2C(=O)c2cc(C(=O)N[C@@H](Cc3ccccc3)[C@H](O)CNCc3cncc(C(C)C)c3)cc(-c3ccco3)c2)n1 [2-2, reference compound]

>  <CLint scaled at 200 μM>
> 700 mL/min/kg

$$$$
>  <compound>
Cc1csc(CN(C)C(=O)c2cccc(C(=O)N[C@@H](Cc3cc(F)cc(F)c3)[C@H](O)[C@H]3CCCN3)c2)n1

>  <CLint scaled at 200 μM>
< 400 mL/min/kg

$$$$
>  <compound>
Cc1csc([C@H]2CCCN2C(=O)c2cc(C(=O)N[C@@H](Cc3ccccc3)[C@H](O)[C@H]3CCCN3)cc(N3CCCC3=O)c2)n1

>  <CLint scaled at 200 μM>
< 400 mL/min/kg

$$$$

Kindly review the next compound as well.
# query: CLint scaled at 200 μM of entry C[C@@H](NC(=O)c1cc(C(=O)N[C@@H](Cc2ccccc2)[C@H](O)[C@H]2CCCN2)cc(N(C)S(C)(=O)=O)c1)c1ccccc1
< 400 mL/min/kg

Values from patent US20120214802A1
